Molecular target: Fuc(a1-2)[GalNAc(a1-3)]Gal(b1-3)GlcNAc(b1-3)GalNAc
Test: glycan array binding signal (z-score within array); higher = stronger binding
Settings: glycan notation: IUPAC condensed, linker removed
Many of the other results were omitted from the sample, so the strongest signals are more common in it than they were.
property.label: glycan array binding signal (z-score)
Reply briefly: the number, and no unit.

Value of glycan array binding signal (z-score) reported for the binder Epa19 (Candida glabrata) (protein) MGSSHHHHHHSSGLVPRGSHMASSKDPTRFPIGCSPQVLKTQPGLAVKLYSYGHPVPGCSYITYQYPDFPRSGYKKERKLADITGVNGKIDIDLKPNDPCRVLTGHLPSNYNYPDTLTYTNFTMILYGYFQPKVTGYHTFNLEADDLLFMNLGAGNAFDCCKAESTLDNFGNYQSYSLWGSDYAKANITVFLVSGVYYPIRLFYVNRDNNAVIDFSFTTEFDKEKVHDFTSYFFSASDGEQCPGSV is 2.07
